# Tested on: HCI-011.E2 (organoid from an ER-positive breast cancer xenograft)
# procedure text: CTG-3D luminescence at 96 h relative to day-0 seeding control (ratio to day 0); higher = more growth / less cytotoxicity; PDxO 3D drug screen, 96 h, CTG-3D normalised to day-0 seeding control.
# recorded conditions: 0.005 µM; days in culture: 74
The compounds listed here are annotated with their CTG-3D luminescence at 96 h.
Reply briefly: the number, and no unit.

Before answering, review these 3 worked examples.
> print(dat)
                                   molecule  target.entity              reported.metric  assay.value
1  C[C@H](NC(=O)CCC(F)(F)F)C(=O)N[C@@H]1C(=O)N(CCO)c2ncccc2-c2ccccc21     HCI-011.E2  CTG-3D luminescence at 96 h         1.96
2  NC(=O)Nc1cc(-c2cccc(F)c2)sc1C(=O)N[C@H]1CCCNC1     HCI-011.E2  CTG-3D luminescence at 96 h         1.88
3  CC(C)(C(=O)NCC(F)(F)C(F)(F)F)C(=O)N[C@@H]1C(=O)Nc2ccccc2-c2ccccc21     HCI-011.E2  CTG-3D luminescence at 96 h         1.89

Just so you know, measured CTG-3D luminescence at 96 h for CNC(=O)c1cccc(-c2ccc3c(N4CCOC[C@@H]4C)nc(N4CCOC[C@@H]4C)nc3n2)c1 came out at 2.03
